Source listed as paper PMC11538706.

test: PK analysis: Cmax and AUC from PK models fitted to serum and ISF concentrations; assay type: in vivo, Male Sprague Dawley rats; conditions: male, Sprague Dawley, rat, ISF, iv, 100 mg/kg, GEN, Rat # 6, dose 100 mg/kg i.v.; read-out: ISF Cmax
QUANTITY NAME: Cmax (µM)
Value expressed in µM; do not type the unit.

Qu. Field request: Cmax | item: CNC(C)C1CCC(N)C(OC2C(N)CC(N)C(OC3OCC(C)(O)C(NC)C3O)C2O)O1 (stereo not shown)
Ans. 886

----------
experiment: PK analysis: Cmax and AUC from PK models fitted to serum and ISF concentrations; assay type: in vivo, Male Sprague Dawley rats; details: male, Sprague Dawley, rat, in vivo, iv, 15 mg/kg, VAN, Rat # 1, dose 15 mg/kg i.v.; read-out: Serum AUC (converted)
QUANTITY NAME: AUC (µM·h)
Give a bare numeral; the unit µM·h is implied.

Qu. I'd like to know its AUC. The molecule in question is CN[C@H](CC(C)C)C(=O)N[C@H]1C(=O)N[C@@H](CC(N)=O)C(=O)N[C@H]2C(=O)N[C@H]3C(=O)N[C@H](C(=O)N[C@H](C(=O)O)c4cc(O)cc(O)c4-c4cc3ccc4O)[C@H](O)c3ccc(c(Cl)c3)Oc3cc2cc(c3O[C@@H]2O[C@H](CO)[C@@H](O)[C@H](O)[C@H]2O[C@H]2C[C@](C)(N)[C@H](O)[C@H](C)O2)Oc2ccc(cc2Cl)[C@H]1O
Ans. 59.1

----------
test: PK analysis: Cmax and AUC from PK models fitted to serum and ISF concentrations; type: in vivo, Male Sprague Dawley rats; conditions: male, Sprague Dawley, rat, in vivo, iv, 45 mg/kg, VAN, Rat # 2, dose 45 mg/kg i.v.; read-out: ISF Cmax
QUANTITY NAME: Cmax (µM)
Quick note: give the figure in µM, leave out the unit.

Qu. Looking for the measured Cmax of CN[C@H](CC(C)C)C(=O)N[C@H]1C(=O)N[C@@H](CC(N)=O)C(=O)N[C@H]2C(=O)N[C@H]3C(=O)N[C@H](C(=O)N[C@H](C(=O)O)c4cc(O)cc(O)c4-c4cc3ccc4O)[C@H](O)c3ccc(c(Cl)c3)Oc3cc2cc(c3O[C@@H]2O[C@H](CO)[C@@H](O)[C@H](O)[C@H]2O[C@H]2C[C@](C)(N)[C@H](O)[C@H](C)O2)Oc2ccc(cc2Cl)[C@H]1O , can you help?
Ans. 36.5

----------
test: PK analysis: Cmax and AUC from PK models fitted to serum and ISF concentrations; format: in vivo, Male Sprague Dawley rats; settings: male, Sprague Dawley, rat, ISF, iv, 50 mg/kg, GEN, Rat # 4, dose 50 mg/kg i.v.; read-out: ISF AUC (converted)
QUANTITY NAME: AUC
Please give the number followed by its unit.

Qu. I have this molecule here, CNC(C)C1CCC(N)C(OC2C(N)CC(N)C(OC3OCC(C)(O)C(NC)C3O)C2O)O1 (stereo not shown) , and I need its recorded AUC.
Ans. 1070 µM·h

----------
test: PK analysis: Cmax and AUC from PK models fitted to serum and ISF concentrations; format: in vivo, Male Sprague Dawley rats; details: male, Sprague Dawley, rat, serum, iv, 50 mg/kg, GEN, Rat # 3, dose 50 mg/kg i.v.; read-out: Serum Cmax
QUANTITY NAME: Cmax (µM)
The reply should be a number in µM, with the unit left off.

Qu. Query: Cmax; subject: CNC(C)C1CCC(N)C(OC2C(N)CC(N)C(OC3OCC(C)(O)C(NC)C3O)C2O)O1 (stereo not shown)
Ans. 807
